Data provenance is patent US20180177842A1.

Kindly supply the reported Percent Absorbed values for the records listed here.
tgt: Artificial Cell Surface (ACS)
test-protocol: ACS column adsorption of trypsin-digested dHSA, MALDI-TOF MS
Report as a plain number; the unit % is understood.

query: # query: Percent Absorbed of entry VFDEFKPLVEEPQNLIK [… (trypsin-generated albumin fragment, SEQ ID NO: 196)]
result: 60

query: # repeat for CCAAADPHECYAK [… (trypsin-generated albumin fragment, SEQ ID NO: 204)]
result: 32

query: Same lookup for CCTESLVNR [… (trypsin-generated albumin fragment, SEQ ID NO: 206)] , please.
result: 26

query: Please give the result for KYLYEIAR [KYLYEIAR (trypsin-generated albumin fragment, SEQ ID NO: 194)] too.
result: 71
